B1: tRNA (parent)
chain: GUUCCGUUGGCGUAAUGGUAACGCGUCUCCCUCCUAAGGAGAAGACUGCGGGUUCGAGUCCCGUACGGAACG

Variants of: B1
assay-protocol: yeast fitness, log relative to wild type (ln ratio); higher = fitter; tRNA-Arg(CCU), competitive growth, 37 C, 1 M NaCl
Label rule, in plain words: yeast fitness (ln) of -0.3 and up is yes (1), under -0.3 is no (0).

- mutation-id: "G1A G6A C27U A43C C46U C66U"
  assigned-label: "yes (1)"
- mutation-id: "U2C C27U A43C C46U C66U A69G A70U"
  assigned-label: "yes (1)"
- mutation-id: "G1A U2G G6U C27U A43C C46U A69G A70G"
  assigned-label: "yes (1)"

Threshold query (yeast fitness (ln) >= -0.3) on U2G G6U A43C C46U C66A A69G A70U C71U
no (0)

Threshold query (yeast fitness (ln) >= -0.3) on C27U C46U C66U A69G A70G C71U
yes (1)

Threshold query (yeast fitness (ln) >= -0.3) on G1A G6U C27U A43C C66U A69G A70G
no (0)
